# PROCEDURE_TEXT: solvent given as SMILES
# TEST_SETTINGS: in CN(C)C=O
# yes (1) = absorption maximum below 400 nm (exclusive); no (0) = absorption maximum at/above 400 nm

Some solved cases for reference:
MOLECULE	LABEL_CLASS
CN(C)c1ccc2cc(C(/C=C/c3cn(C)c4ccccc34)=C(C#N)C#N)c(=O)oc2c1	no (0)
F[B-]1(F)n2cccc2C(c2c3ccccc3cc3ccccc23)=C2C=CC=[N+]21	no (0)
CCn1c2ccccc2c2c3nsnc3c3c4ccccc4n(CC)c3c21	no (0)

Query: Determine whether this molecule shows absorption maximum lower than 400 nm (ties excluded): `CCCCCCCCC1(CCCCCCCC)c2cc(-c3ccc([N+](=O)[O-])cc3)ccc2-c2ccc(-c3ccc([N+](=O)[O-])cc3)cc21`
Result: yes (1)

Query: Determine whether this molecule shows absorption maximum lower than 400 nm (ties excluded): `CC1=CC(C)=[N+]2C1=Cc1c3ccccc3c(C#Cc3ccc(F)cc3)n1[B-]2(F)F`
Result: no (0)

Query: Determine whether this molecule shows absorption maximum lower than 400 nm (ties excluded): `CCN(CC)c1ccc(/C=N/C(C#N)=C(C#N)/N=C/c2ccc(N(CC)CC)cc2O)c(O)c1`
Result: no (0)

Query: Determine whether this molecule shows absorption maximum lower than 400 nm (ties excluded): `Cc1ccc2[nH]c(-c3ccc(-c4ccc(-c5ccc(-c6nc7cc(C)ccc7[nH]6)cc5)cc4)cc3)nc2c1`
Result: yes (1)

Query: Determine whether this molecule shows absorption maximum lower than 400 nm (ties excluded): `Nc1ccc2c(-c3ccccc3C(=O)[O-])c3ccc(=[NH2+])cc-3oc2c1`
Result: no (0)

Query: Determine whether this molecule shows absorption maximum lower than 400 nm (ties excluded): `CCC1=C(C)C2=C(c3cc(C(=O)Cl)cc(C4=C5C(C)=C(CC)C(C)=[N+]5[B-](F)(F)n5c(C)c(CC)c(C)c54)c3)c3c(C)c(CC)c(C)n3[B-](F)(F)[N+]2=C1C`
Result: no (0)

Query: Determine whether this molecule shows absorption maximum lower than 400 nm (ties excluded): `CCCCOc1ccc(-c2cc3c(o2)c(-c2ccc(OCCCC)cc2)c2n3[B-](F)(F)[N+]3=Cc4c(-c5ccc(OCCCC)cc5)c5oc(-c6ccc(OCCCC)cc6)cc5n4[B-](F)(F)[N+]3=C2)cc1`
Result: no (0)

Query: Determine whether this molecule shows absorption maximum lower than 400 nm (ties excluded): CCOC(=O)C1=C(C)NC2=C(C(=O)c3ccccc32)C1c1ccc(N(C)C)cc1 (stereo unspecified)
Result: yes (1)

Query: Determine whether this molecule shows absorption maximum lower than 400 nm (ties excluded): `CCc1ccc(/C=C/c2ccc(-c3nnc(-c4ccc(-c5cc6ccccc6s5)cc4)o3)cc2)cc1`
Result: yes (1)

Query: Determine whether this molecule shows absorption maximum lower than 400 nm (ties excluded): `COc1ccc(-n2nc(C#N)c(NC3CCCCC3)n2)cc1`
Result: yes (1)

Query: Determine whether this molecule shows absorption maximum lower than 400 nm (ties excluded): `CC1(C)c2ccccc2N(c2ccc3c(ccc4nc5ccc6cc(N7c8ccccc8C(C)(C)c8ccccc87)ccc6c5nc43)c2)c2ccccc21`
Result: no (0)

Query: Determine whether this molecule shows absorption maximum lower than 400 nm (ties excluded): `CN(C)CCN(Cc1c2ccccc2c(CN(CCN(C)C)c2ccc([N+](=O)[O-])cc2[N+](=O)[O-])c2ccccc12)c1ccc([N+](=O)[O-])cc1[N+](=O)[O-]`
Result: yes (1)

Query: Determine whether this molecule shows absorption maximum lower than 400 nm (ties excluded): `Nc1ccc(N2C(=O)c3ccc4c5ccc6c7c(ccc(c8ccc(c3c48)C2=O)c75)C(=O)N(c2ccc(N)cc2)C6=O)cc1`
Result: no (0)
